These data points were gathered from patent US20150133554A1.

- Test system: THP-1 cells
- Assay comment: Cytokine release (TNF-α, MCP-1, IL-6) by LPS-stimulated THP-1 macrophages after fatty acid incubation
- Format: cell-based
- Condition description: 24 h fatty acid (50 and 100 μM), then 24 h LPS; compared to control macrophages
Measured metric: Inflammatory cytokine release (TNF-α, MCP-1, IL-6)

CCCCCCCCCCCCCCCC(=O)O; did not change
CCCCCCCCCCCCCCCCCC(=O)O; did not change
CCCCCCCC/C=C\CCCCCCCC(=O)O; did not change
